- RUN_PARAMETERS: in ethanol, 288.15 K
READOUT_KIND: solubility (mole fraction)

Input line: Note down solubility (mole fraction) recorded for Cc1cccc(C(=O)O)c1N
Output line: 0.0244

###

- RUN_PARAMETERS: in methanol, 298.15 K
READOUT_KIND: solubility (mole fraction)
Just the number.

Input line: Note down solubility (mole fraction) recorded for Cc1cccc(C(=O)O)c1N
Output line: 0.0367

###

- RUN_PARAMETERS: in methanol, 293.15 K
READOUT_KIND: solubility (mole fraction)
Just the number.

Input line: Note down solubility (mole fraction) recorded for Cc1cccc(C(=O)O)c1N
Output line: 0.0317

# credit: BigSolDB 2.1
